RUN DESCRIPTION: APR_HepG2_p53Act_72hr: Apredica 72-hour HepG2 Assay for p53 Activation (AID 2282923);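 further: average cellular p53 protein immunofluorescence intensity in HepG2 cells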
SETUP CONDITIONS: high-content imaging, actives raise or lower the signal
Procedure: APR_HepG2_72hr is a cell-based, multiplexed-readout assay that uses HepG2, a human liver cell line, with measurements taken at 72 hours after chemical dosing in a 384-well plate.APR_HepG2_p53Act_72hr is one of 10 assay component(s) measured or calculated from the APR_HepG2_72hr assay. […] This assay endpoint, APR_HepG2_p53Act_72hr, was analyzed with bidirectional fitting relative to DMSO as the negative control and baseline of activity. […]
Active and inactive are the calls of the source. How the source made its calls: active means hit-call score of the fitted dose curve at least 0.9, where 1 is the maximum; inactive means score below 0.9.
Tick one outcome: y for active, n for inactive

Data request: What was the test verdict on `CCOC(=O)[C@H](C)Oc1ccc(Oc2nc3ccc(Cl)cc3o2)cc1` ?
Data returned: n

Data request: Follow-up entry: `O=C(c1ccccc1)C1CCCCC1`
Data returned: n

Data request: Next compound: CCCCOC(=O)C(C)Oc1ccc(Oc2ccc(C(F)(F)F)cn2)cc1 (stereo not drawn)
Data returned: n

Data request: Try the compound `CC(=O)S[C@@H]1CC2=CC(=O)CC[C@]2(C)[C@H]2CC[C@@]3(C)[C@@H](CC[C@@]34CCC(=O)O4)[C@H]12`
Data returned: y

Data request: Would you kindly repeat that for `CCN(Cc1c(F)cccc1Cl)c1c([N+](=O)[O-])cc(C(F)(F)F)cc1[N+](=O)[O-]` ?
Data returned: n

Data request: Check `Oc1ccc(C(c2ccc(O)cc2)C(Cl)(Cl)Cl)cc1` too.
Data returned: n

Data request: Same again, this time with `OB(O)O`
Data returned: n

Data request: Try this compound next: CCCCCCC(C)OC(=O)COc1nc(F)c(Cl)c(N)c1Cl (stereo not drawn)
Data returned: n

Data request: Now the same for `CCCOC(=O)NCCCN(C)C`
Data returned: n

Data request: And what about the compound CC1(C)C(C=C(Cl)Cl)C1C(=O)OCc1cccc(Oc2ccccc2)c1 (stereo not drawn) ?
Data returned: n

Data request: Now consider `O=C(O)c1ccccc1` .
Data returned: n

Data request: Same for `COC(=O)c1cccc(C)c1S(=O)(=O)NC(=O)Nc1nc(OCC(F)(F)F)nc(N(C)C)n1`
Data returned: n

Data request: Subsequent entry: `COC(=O)c1c(Cl)nn(C)c1S(=O)(=O)NC(=O)Nc1nc(OC)cc(OC)n1`
Data returned: n
